# credit: the supplement of paper PMC4466140

Molecular target: AgBzz1-D1
Assay: SPOT peptide array binding signal intensity (averaged, normalized) (arbitrary units (background-subtracted, floor 0; scale differs between SH3 domains)); higher = stronger binding of the SH3 domain to the peptide
SPOT peptide array binding signal intensity reference
assay metric: SPOT peptide array binding signal intensity

# binder, value modifier, assay result
measured = [
    ("LLIRWLILMPLVGSR", "=", 39),
    ("VPPVPLPFGIPPFPM", "=", 6),
    ("RRGPAPPPPPRASRP", "=", 582),
    ("SPLGAPPPPPHKDHL", "≤", 0),
    ("NGRRRPKFRVQLSGN", "=", 84),
    ("TPTSGPPLLPPRNTM", "=", 15),
    ("NPNRRAPRRPLSTQH", "=", 18.5),
    ("PSTMDFPKLPSFQNS", "=", 13),
    ("VQPTAAPATPPRHIS", "≤", 0),
    ("KRRTSLFPWLHKPGI", "=", 15),
    ("NVLRKILEIPLHSFS", "=", 5.5),
    ("AATTSTPPLPRRRAT", "=", 188),
    ("RSRRSSFAYPQQVAI", "=", 32),
    ("NRARYLPQNPDIIAG", "=", 9),
    ("DGNEEKPLLPTRPNK", "=", 9.5),
    ("APERAVPILPPRNNV", "=", 84.5),
    ("AAAPKHAPPPVPNET", "=", 96),
    ("PSRRAPLQLPQLVNK", "=", 13),
    ("RRLRDKYKLPIVDAD", "=", 32),
    ("VKPRQLFPIPLNKVD", "=", 61),
    ("FTLPPPPPPPGLDEL", "≤", 0),
    ("GQYRRTIVIPRRFFT", "=", 42.5),
    ("DFTLPPPPPPPGLDE", "≤", 0),
]
